tested on: biotinyl-Trp-oxazolone; assay: self-aminoacylation, catalytic enhancement (BWO) (fold over background); higher = more active; k-Seq, kA / k0A0; sequences stand for … in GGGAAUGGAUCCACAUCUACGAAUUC…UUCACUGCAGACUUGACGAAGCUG
This sample holds only a part of the variants without activity.
Catalogue of self-aminoacylation readings, one per entry.
Lab note: jot down the number only; don't add units.

In the examples that follow, each entry is paired with its recorded self-aminoacylation.
# SEQUENCE_CODE, self-aminoacylation
measured = [
    ("AUUACGCUGGUCAUCGAGCGA [Fam2.1 aminoacylation ribozyme variant]", 2.16),
    ("UUUCACCUAGGCCAUCGGGUG [Fam2.2 aminoacylation ribozyme variant]", 4.57),
    ("AUUCCCCUGGUCAUCGAGAGA [Fam2.1 aminoacylation ribozyme variant]", 1.96),
    ("AUUCACCUAGUUCAUCGUGUG [Fam2.2 aminoacylation ribozyme variant]", 1.1),
    ("AUUACGCGGGUCAUCGAGUGA [Fam2.1 aminoacylation ribozyme variant]", 5.54),
    ("UUACUUCAAACAAUCUGUCUG [Fam1A.1 aminoacylation ribozyme variant]", 2.09),
    ("AUUACCGUGGUCAUGGAGUGA [Fam2.1 aminoacylation ribozyme variant]", 3.69),
    ("AUUCACCUAGCUCAACGGGUG [Fam2.2 aminoacylation ribozyme variant]", 1.95),
]

--- query ---
INPUT: Give the reported self-aminoacylation for AUUACCCUGGUCAUCGAGUUA [Fam2.1 aminoacylation ribozyme variant] (system: biotinyl-Trp-oxazolone).
OUTPUT: 8.28

* * *

system: biotinyl-Trp-oxazolone; test: self-aminoacylation, catalytic enhancement (BWO) (fold over background); higher = more active; k-Seq, kA / k0A0; sequences stand for … in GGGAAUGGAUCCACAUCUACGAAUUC…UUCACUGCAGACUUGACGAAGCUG
Fewer inactive variants are shown than the library holds.
Quick rule: self-aminoacylation of at least 2 means MET, below that means NOT MET.

Use the examples below as a reference point.
# SEQUENCE_CODE, ASSIGNED_LABEL
records = [
    ("CCAUUCUUCAAGCAAUCGGUC [Fam1B.1 aminoacylation ribozyme variant]", "NOT MET"),
    ("AUUCCCCUAGGUAAUCGGGUG [Fam2.2 aminoacylation ribozyme variant]", "MET"),
    ("CUACUUCAACCAAUCGGUCUU [Fam1A.1 aminoacylation ribozyme variant]", "MET"),
    ("CCAAACUUCUAGCAAUCGGUC [Fam1B.1 aminoacylation ribozyme variant]", "NOT MET"),
    ("CUACUUCAAAGAAGCGGUCUG [Fam1A.1 aminoacylation ribozyme variant]", "NOT MET"),
]

INPUT: # check: self-aminoacylation of CUACUUCCAACAAUGGGUCUG [Fam1A.1 aminoacylation ribozyme variant] is greater than or equal to 2
OUTPUT: NOT MET

INPUT: Reported self-aminoacylation at or above 2? GUUACCCUGGUCAUCGGGUGA [Fam2.1 aminoacylation ribozyme variant]
OUTPUT: MET

* * *

test system: biotinyl-Trp-oxazolone; test: self-aminoacylation, catalytic enhancement (BWO) (fold over background); higher = more active; k-Seq, kA / k0A0; sequences stand for … in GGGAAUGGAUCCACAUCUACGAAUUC…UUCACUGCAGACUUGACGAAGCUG
This sample holds only a part of the variants without activity.
Quick rule for you: self-aminoacylation at 0.9 or higher means 1.0, lower means 0.0.

Would you please look over these solved cases?
# SEQUENCE_CODE, ASSIGNED_LABEL
rows = [
    ("CUACUUCAAACAAUCGGUGUA [Fam1A.1 aminoacylation ribozyme variant]", 1.0),
    ("AUUACGCUGUUCAUCGAGUGA [Fam2.1 aminoacylation ribozyme variant]", 1.0),
    ("AUUGACCUGGUCAUCGAGUGA [Fam2.1 aminoacylation ribozyme variant]", 1.0),
    ("AUUACCGUGGUCAUCCAGUGA [Fam2.1 aminoacylation ribozyme variant]", 1.0),
    ("ACACACUUCAAGCAAUCUGUC [Fam1B.1 aminoacylation ribozyme variant]", 0.0),
    ("AUUUCCCUGAUCAUCGAGUGA [Fam2.1 aminoacylation ribozyme variant]", 1.0),
    ("CCACGCUUCAAGCAAUAGGUC [Fam1B.1 aminoacylation ribozyme variant]", 0.0),
    ("ACUACCCUGGUCGUCGAGUGA [Fam2.1 aminoacylation ribozyme variant]", 0.0),
]

INPUT: Given the entry AAGUUUGCUAAUAGUGGCAUG [Fam3.1 aminoacylation ribozyme variant] , answer whether its self-aminoacylation meets or surpasses 0.9.
OUTPUT: 0.0

* * *

tested on: biotinyl-Leu-oxazolone; assay: self-aminoacylation, catalytic enhancement (BLO) (fold over background); higher = more active; k-Seq, kA / k0A0; sequences stand for … in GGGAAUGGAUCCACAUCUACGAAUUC…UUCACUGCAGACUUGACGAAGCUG
Variants at the floor of the assay were thinned out.
TEST_READOUT: self-aminoacylation
// print number alone

Some sequences with recorded self-aminoacylation:
# SEQUENCE_CODE, self-aminoacylation
data = [
    ("AUUCACCACGGUCAUCGGGUG [Fam2.2 aminoacylation ribozyme variant]", 12.3),
    ("CUUCACCUAGGACAUCGGGUG [Fam2.2 aminoacylation ribozyme variant]", 3.53),
    ("CUACUUCAAAUAAUCGAUCUG [Fam1A.1 aminoacylation ribozyme variant]", 0.495),
    ("CCACACCUCAUGCAAUCGGUC [Fam1B.1 aminoacylation ribozyme variant]", 0.685),
    ("GUACACUUCAAGCAAUCGGUC [Fam1B.1 aminoacylation ribozyme variant]", 1.64),
    ("AUUGUCCUAGGUCAUCGGGUG [Fam2.2 aminoacylation ribozyme variant]", 39.1),
    ("AUUCGCCUAGGUCAUGGGGUG [Fam2.2 aminoacylation ribozyme variant]", 6.48),
    ("UCACACUUCAACCAAUCGGUC [Fam1B.1 aminoacylation ribozyme variant]", 2.44),
]

INPUT: Look at this sequence and give its reported self-aminoacylation. AAGUACGCUAAUAGUCGCAAG [Fam3.1 aminoacylation ribozyme variant]
OUTPUT: 2.38

* * *

system: biotinyl-Val-oxazolone; assay: self-aminoacylation, catalytic enhancement (BVO) (fold over background); higher = more active; k-Seq, kA / k0A0; sequences stand for … in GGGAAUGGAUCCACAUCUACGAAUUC…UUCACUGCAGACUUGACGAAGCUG
This sample holds only a part of the variants without activity.
Is self-aminoacylation at least 3? Then 1 (yes). If not, 0 (no).

Known results for sequences:
# SEQUENCE_CODE, TARGET_ENTITY, ASSIGNED_LABEL
rows = [
    ("CCACACUUCAAGCAGCCGGUC [Fam1B.1 aminoacylation ribozyme variant]", "biotinyl-Val-oxazolone", "0 (no)"),
    ("AUUACCCUGGUAAUCGAGGGA [Fam2.1 aminoacylation ribozyme variant]", "biotinyl-Val-oxazolone", "0 (no)"),
    ("AAGUUUGCUAAUAGUUGCAAU [Fam3.1 aminoacylation ribozyme variant]", "biotinyl-Val-oxazolone", "0 (no)"),
]

INPUT: Is self-aminoacylation at least 3? Consider AUUGACCUAGGUCUUCGGGUG [Fam2.2 aminoacylation ribozyme variant]
OUTPUT: 1 (yes)

INPUT: For this sequence, is measured self-aminoacylation 3 or higher? CUACUUCAAACAAUCGGAGUG [Fam1A.1 aminoacylation ribozyme variant]
OUTPUT: 0 (no)

INPUT: Test whether the sequence AUGCACUUAGGUCAUCGGGUG [Fam2.2 aminoacylation ribozyme variant] records self-aminoacylation of 3 or higher.
OUTPUT: 1 (yes)

INPUT: Has CCACACUUAAAGCAACCGGUC [Fam1B.1 aminoacylation ribozyme variant] a recorded self-aminoacylation greater than or equal to 3?
OUTPUT: 0 (no)

INPUT: Identify whether the reported self-aminoacylation of the following sequence is 3 or greater: CUACUGCAUACAAUCGGUCUG [Fam1A.1 aminoacylation ribozyme variant]
OUTPUT: 0 (no)

* * *

system: biotinyl-Trp-oxazolone; test: self-aminoacylation, catalytic enhancement (BWO) (fold over background); higher = more active; k-Seq, kA / k0A0; sequences stand for … in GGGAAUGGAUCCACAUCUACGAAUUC…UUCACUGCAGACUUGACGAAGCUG
Variants at the floor of the assay were thinned out.
Entries and their measured self-aminoacylation follow.
Just the number.

For orientation, consider the following solved cases.
# SEQUENCE_CODE, TEST_READOUT, OBSERVED_MEASUREMENT
measured = [
    ("AAGUUUGCGUAUAGUCGCAAG [Fam3.1 aminoacylation ribozyme variant]", "self-aminoacylation", 1.23),
    ("CUACAUCAAACAAUCGGCCUG [Fam1A.1 aminoacylation ribozyme variant]", "self-aminoacylation", 2.21),
    ("AUUCGCCUAGCUCAUCGGGUG [Fam2.2 aminoacylation ribozyme variant]", "self-aminoacylation", 2.87),
    ("AUUCACCUGGUUCAUCGGGUG [Fam2.2 aminoacylation ribozyme variant]", "self-aminoacylation", 3.62),
    ("AAGUGUACUAAUAGUCGCAAG [Fam3.1 aminoacylation ribozyme variant]", "self-aminoacylation", 1.2),
    ("AUUCACCUAUGUCGUCGGGUG [Fam2.2 aminoacylation ribozyme variant]", "self-aminoacylation", 1.3),
    ("AUUCUUCUAGGUCAUCGGGUG [Fam2.2 aminoacylation ribozyme variant]", "self-aminoacylation", 6.98),
    ("AUUCACCUACGUGAUCGGGUG [Fam2.2 aminoacylation ribozyme variant]", "self-aminoacylation", 3.44),
]

Here's the next entry for you.
INPUT: Write down the reported self-aminoacylation of AAGUUUGCAAAUAGUCGCAUG [Fam3.1 aminoacylation ribozyme variant] , test system: biotinyl-Trp-oxazolone.
OUTPUT: 1.46

This collection of values is drawn from the supplement of paper PMC9233669.
